# ASSAY OVERVIEW: Measurement of solubility (shaking at 37° C., UHPLC)
# Assay type: physicochemical
# ASSAY SETUP: JP1 solution (sodium chloride/hydrochloric acid in water), 37 °C, pH 1.2, simulated gastric fluid, thermodynamic from solid, JP1 (pH about 1.2), shaking at 37° C. for 30 minutes; read-out: Solubility JP1
PROPERTY NAME: solubility at 30 min

Reported solubility at 30 min of CCN([C@H]1CC[C@H](C(=O)O)CC1)S(=O)(=O)c1cccc(C(=O)Nc2ccc(N3CCCCC3)cc2C(=O)Nc2ccc(CCc3ccc(C(=O)O)cc3)cc2)c1 [Example 1, trihydrate] : 1 µg/mL
